Exercise: for every item that follows, state its recorded Kd.
# tgt: T1, serum purified human Complement Factor D (human, UniProt P00746 26-253)
# T1 construct: Serum purified protein flowed over the captured antibodies; also called CFD; human CFD
# experimental protocol: SPR Biacore, antibody on protein A chip, single cycle kinetics, 37 C;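 further: antibodies captured on the protein A surface to roughly 70 RU in HBS-EP+ buffer, with rate and affinity constants fitted using BIAevaluation software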
// unit must come after the numeric part

Q: Give its Kd value. Item: KCD119 TAF / KCD119 TAF (antibody, V domains shown, Humanized KCD119; tested as full antibody captured on protein A; also called D19 TAF) VH: EVQLVESGGGLVQPGGSLRLSCAASGYTFTDYYMNWVRQAPGKGLEWIGDINPNTGDTSYNADFKRRFTFSLDTSKSTAYLQMNSLRAEDTAVYYCTREGPSFAYWGQGTLVTVSS VL: DIQLTQSPSSLSASVGDRVTITCRSSQTIVHSNGDTYLEWYQQKPGKAPNLLIYKVSNRFSGVPSRFSGSGSGTDFTLTISSLQPEDFATYYCFQGSHVPPTFGQGTKVEIK
A: 0.499 nM

Q: Give its Kd value. Item: 34I54I59D / 32W60W101V (antibody, V domains shown, KCD119 TAF variant; full antibody captured on protein A) VH: EVQLVESGGGLVQPGGSLRLSCAASGYTFTDYYINWVRQAPGKGLEWIGDINPITGDTDYNADFKRRFTFSLDTSKSTAYLQMNSLRAEDTAVYYCTREGPSFAYWGQGTLVTVSS VL: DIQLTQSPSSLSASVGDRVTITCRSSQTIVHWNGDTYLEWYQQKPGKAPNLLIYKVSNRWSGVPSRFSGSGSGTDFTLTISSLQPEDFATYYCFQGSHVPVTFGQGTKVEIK
A: 0.0217 nM

Q: Give its Kd value. Item: 54V59D / 32W50I101V (antibody, V domains shown, KCD119 TAF variant; full antibody captured on protein A) VH: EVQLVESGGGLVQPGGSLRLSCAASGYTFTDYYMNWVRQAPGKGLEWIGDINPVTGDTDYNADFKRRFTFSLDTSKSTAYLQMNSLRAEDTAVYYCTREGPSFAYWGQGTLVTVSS VL: DIQLTQSPSSLSASVGDRVTITCRSSQTIVHWNGDTYLEWYQQKPGKAPILLIYKVSNRFSGVPSRFSGSGSGTDFTLTISSLQPEDFATYYCFQGSHVPVTFGQGTKVEIK
A: 0.0223 nM
